- experimental system: FAAH (Rattus norvegicus, UniProt P97612)
- Construct: Frozen brains (without cerebellum) from Wistar rats were used; from tissue; host or cells: Wistar rat brain (without cerebellum), washed membrane pellets
- Sequence (P97612 whole entry): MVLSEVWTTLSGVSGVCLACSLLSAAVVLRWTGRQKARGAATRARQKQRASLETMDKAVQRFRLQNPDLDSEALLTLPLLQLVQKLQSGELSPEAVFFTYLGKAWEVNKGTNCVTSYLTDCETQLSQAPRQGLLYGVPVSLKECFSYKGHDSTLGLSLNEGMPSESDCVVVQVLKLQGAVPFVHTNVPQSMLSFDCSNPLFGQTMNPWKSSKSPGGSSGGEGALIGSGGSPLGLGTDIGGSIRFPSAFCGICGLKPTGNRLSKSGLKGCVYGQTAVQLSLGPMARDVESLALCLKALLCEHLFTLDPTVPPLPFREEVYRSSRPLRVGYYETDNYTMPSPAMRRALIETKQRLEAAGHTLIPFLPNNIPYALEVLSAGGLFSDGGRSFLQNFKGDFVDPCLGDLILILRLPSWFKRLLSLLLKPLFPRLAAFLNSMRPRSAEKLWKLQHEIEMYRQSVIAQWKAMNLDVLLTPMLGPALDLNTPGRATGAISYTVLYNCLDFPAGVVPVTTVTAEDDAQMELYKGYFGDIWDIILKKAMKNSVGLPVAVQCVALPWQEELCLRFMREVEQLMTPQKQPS
- assay text: In vitro FAAH activity in rat brain membranes, 3H-AEA substrate, % of control
- Assay type: biochemical, Wistar rats
- test context: 100 nM test compound, low value = strong inhibitor
- Description: 3. Biological Efficacy of Compounds of the Invention The in vitro test was performed according to the protocol described below. The controls for both in vitro and in vivo were the reaction mix minus the test compounds. […] The in vitro pharmaceutical FAAH activity was determined according to the following method: […] The FAAH activity was determined using AEA (labelled with 3H in the ethanolamine part of the molecule) as substrate and measuring the 3H-ethanolamine formed. […]
observed property: In Vitro FAAH activity, 100 nM

Quick check: In Vitro FAAH activity, 100 nM of O=C(N1CCSC1)n1nnc2ccccc21 ?
2.1 % of control

Data request, read-out In Vitro FAAH activity, 100 nM, for COc1cccc(-c2cn(C(=O)N(Cc3ccccc3)C(C)C)cn2)c1
96.7 % of control

For the compound shown here, O=C(N1CCC2(CC1)OCCO2)n1nnc2ccccc21 , give the reported In Vitro FAAH activity, 100 nM.
0.2 % of control

What In Vitro FAAH activity, 100 nM value was documented for this compound, CN(C(=O)n1cnc(-c2ccc(Cl)cc2)n1)c1ccc(F)cc1 ?
80.8 % of control

Give its In Vitro FAAH activity, 100 nM value. Item: CN(C(=O)n1cnc(-c2cccc(-c3ccc(C(N)=O)cc3)c2)c1)C1CCCCC1
0.4 % of control

Please give the measured In Vitro FAAH activity, 100 nM for this compound: CN(C(=O)n1cnc(-c2ccccc2)c1)C1CCCCC1
37.5 % of control

In Vitro FAAH activity, 100 nM lookup needed for O=C(N1CCN(c2ccccc2)CC1)n1cnc(Cc2ccccc2)n1 , thanks.
0.6 % of control

* * *

- experimental system: FAAH (Mus musculus)
- Construct: A fragment of liver, left lung lobe and brain without cerebellum were removed; from tissue; host or cells: male NMRI mice; brain (without cerebellum) and liver homogenates
- assay text: In vivo FAAH inhibition after oral dosing, remaining activity in liver homogenate (LVh, peripheral tissue)
- Parameters: species or system NMRI mice
- test context: liver homogenate, 3 mg/kg, 8 h after dosing; low value = strong inhibitor
observed property: In Vivo LVh 3 mg·kg 8 h (remaining FAAH activity, % of control)

Below are worked cases with known answers.
CN(C(=O)n1cnc(-c2ccc(NCc3ccccc3)c([N+](=O)[O-])c2)c1)C1CCCCC1	104.6 % of control
CN(C(=O)n1cnc(-c2ccc(F)cc2)c1)C1CCCCC1	2.6 % of control
CN(C(=O)n1cnc(-c2cc3ccccc3o2)c1)C1CCCCC1	5.1 % of control

Now consider a different compound.
Request the reported In Vivo LVh 3 mg·kg 8 h (remaining FAAH activity, % of control) associated with CN(C)c1ccc(-c2cn(C(=O)N(C)C3CCCCC3)cn2)cc1[N+](=O)[O-]
4.9 % of control

* * *

- experimental system: FAAH (Mus musculus, UniProt O08914)
- Construct: A fragment of liver, left lung lobe and brain without cerebellum were removed; from tissue; host or cells: male NMRI mice; brain (without cerebellum) and liver homogenates
- Sequence (O08914 whole entry, the tested form may be a part): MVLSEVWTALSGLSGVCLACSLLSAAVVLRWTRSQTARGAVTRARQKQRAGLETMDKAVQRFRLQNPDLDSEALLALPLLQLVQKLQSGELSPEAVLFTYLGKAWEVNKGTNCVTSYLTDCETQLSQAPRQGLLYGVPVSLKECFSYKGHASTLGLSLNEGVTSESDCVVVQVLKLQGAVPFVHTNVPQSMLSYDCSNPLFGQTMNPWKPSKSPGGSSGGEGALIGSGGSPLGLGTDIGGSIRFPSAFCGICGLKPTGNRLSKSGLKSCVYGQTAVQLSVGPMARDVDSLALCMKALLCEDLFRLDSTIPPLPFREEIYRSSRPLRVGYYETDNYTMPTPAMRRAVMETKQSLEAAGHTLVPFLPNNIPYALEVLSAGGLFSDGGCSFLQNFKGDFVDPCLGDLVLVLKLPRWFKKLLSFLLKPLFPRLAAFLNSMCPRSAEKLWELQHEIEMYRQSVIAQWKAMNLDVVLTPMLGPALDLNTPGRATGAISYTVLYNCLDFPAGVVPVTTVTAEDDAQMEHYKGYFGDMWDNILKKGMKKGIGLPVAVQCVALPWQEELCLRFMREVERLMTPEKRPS
- assay text: In vivo FAAH inhibition after oral dosing, remaining activity in brain homogenate (BRh, central nervous tissue)
- Set-up: species or system NMRI mice
- test context: brain homogenate, 3 mg/kg, 8 h after dosing; low value = strong inhibitor
observed property: In Vivo BRh 3 mg·kg 8 h (remaining FAAH activity, % of control)

Recorded results for 2 compounds are shown here.
CC1(C)COCN1C(=O)n1cnc(-c2ccc(F)c(O)c2)c1	119 % of control
CN(C(=O)n1cnc(-c2ccc(O)cc2)c1)C1CCCC1	1.4 % of control

Suppose we examine the compound CN(C(=O)n1cnc(-c2cccc(O)c2)c1)C1CCCCC1 ; what In Vivo BRh 3 mg·kg 8 h (remaining FAAH activity, % of control) value has been reported?
137.6 % of control

Reported In Vivo BRh 3 mg·kg 8 h (remaining FAAH activity, % of control) for CN(C(=O)n1cnc(-c2ccccc2)c1)C1CCOCC1 : what is it?
1.6 % of control

Look up In Vivo BRh 3 mg·kg 8 h (remaining FAAH activity, % of control) for this compound: CN(C)c1ccc(-c2cn(C(=O)N(C)C3CCCCC3)cn2)cc1N
11.8 % of control
